# System: A/J mice
# experimentDescription: Induction of myocarditis by immunization with SERCA2a peptides, histology
# Type: in vivo, mouse
# conditionParameters: individual peptide/CFA + PT, day 21, H&E; normal = 0 foci
Ends that are not written are not given here.
outcomeMeasure: Severity of lesions, Ventricle, Number of animals affected (%), Normal

# substance, observedValue
rows = [
    ("SERCA2a 601-620: N-terminally acetylated 20-mer peptide of SERCA2a, residues 601-620 (Ac-PPRIEVASSVKLCRQAGIRV; UniProt P16615 601-620, looked up, fragment)", 5),
    ("SERCA2a 171-190: N-terminally acetylated 20-mer peptide of SERCA2a, residues 171-190 (Ac-TTLRVDQSILTGESVSVIKH; UniProt P16615 171-190, looked up, fragment)", 4),
    ("SERCA2a 951-970: N-terminally acetylated 20-mer peptide of SERCA2a, residues 951-970 (Ac-PLPLIFQITPLNVTQWLMVL; UniProt P16615 951-970, looked up, fragment)", 9),
    ("SERCA2a 161-180: N-terminally acetylated 20-mer peptide of SERCA2a, residues 161-180 (Ac-ADIRLTSIKSTTLRVDQSIL; UniProt P16615 161-180, looked up, fragment)", 7),
    ("SERCA2a 311-330: N-terminally acetylated 20-mer peptide of SERCA2a, residues 311-330 (Ac-LPAVITTCLALGTRRMAKKN; UniProt P16615 311-330, looked up, fragment)", 5),
    ("SERCA2a 821-840: N-terminally acetylated 20-mer peptide of SERCA2a, residues 821-840 (Ac-RNPKEPLISGWLFFRYLAIG; UniProt P16615 821-840, looked up, fragment)", 5),
]
